Values compiled from the MegaScale stability set (Tsuboyama et al. 2023).

B1: EHEE_rd2_0196 (parent)
chain: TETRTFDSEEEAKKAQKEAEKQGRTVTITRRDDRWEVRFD

variants of: B1; test: folding stability dG (cDNA display proteolysis); higher = more stable; settings: PBS, room temperature
Using folding stability dG as the sorting value, the categories are LOW (below 2 kcal/mol), MEDIUM (2 kcal/mol to below 3 kcal/mol), HIGH (3 kcal/mol or more)

T25M
MEDIUM
E11W
LOW
E9Q
MEDIUM
E9N
LOW
D32G
HIGH
E36T
LOW
R31F
MEDIUM
T1F
HIGH
V26F
LOW
Q16A
HIGH
R34E
MEDIUM
V26H
LOW
W35I
LOW
T1C
MEDIUM
D40E
HIGH
R30P
MEDIUM
S8V
LOW
